tested on: NCI-H460 lung; assay: NCI-60 one-dose screen, 48 h; conditions: 10 µM unless noted
This is part of a sample that, as a whole, favours compounds with a hit. Of some 83,000 tested, about 20% had one in any assay. The source made the active and inactive calls. The calls were made as follows: active = growth percent below 10; inactive = the rest.
Classes used: label 1 = active, label 0 = inactive

[[record]]
compound = "C=C1C(=O)O[C@H]2[C@H]1CC/C(COC(=O)NCCOCCOCC(=O)Nc1ccc(OC)c(C(N)=O)c1O)=C\\CC[C@@]1(C)O[C@@H]21"
group = "label 0"

[[record]]
compound = "Cc1nc2ccccc2c(/C=C/c2ccc(Cl)cc2)c1C(=O)/C=C/c1cccs1"
group = "label 0"

[[record]]
compound = "c1ccc(-c2nc3sc(-c4ccccc4)cn3n2)cc1"
group = "label 0"

[[record]]
compound = "COc1ccc(-c2cc(-c3cc(OC)c(OC)c(OC)c3)nc(N3CCOCC3)c2C#N)cc1"
group = "label 0"

[[record]]
compound = "COc1ccc(C2C(C#N)=C(N)Oc3c2sc2c(C)cccc32)cc1 (centres undefined)"
group = "label 1"

[[record]]
compound = "Cc1onc2c(-c3ccccc3)n[nH]c(=O)c12"
group = "label 0"

[[record]]
compound = "CNCCCNc1nc2ccccc2c2c(=O)c3cc(OC)ccc3sc12"
group = "label 1"

[[record]]
compound = "COc1ccc(/C=C2\\Oc3cc(OCCN4CCC(Cc5ccccc5)CC4)ccc3C2=O)cc1OC"
group = "label 0"

[[record]]
compound = "Oc1c(I)cc(I)cc1CNCCCN(Cc1ccccn1)Cc1ccccn1"
group = "label 1"

[[record]]
compound = "C[C@H](C(=O)Nc1ccc(S(N)(=O)=O)cc1)S(=O)(=O)c1ccccc1"
group = "label 0"

[[record]]
compound = "Cc1[nH]c(C(=O)Nc2ccc(C(=O)N3CCNCC3)cc2OC(C)C)c(Cl)c1Cl"
group = "label 1"

[[record]]
compound = "FC(F)(F)c1cc(Nc2ccc3c(OCCCN4CCOCC4)cccc3n2)ccc1Cl"
group = "label 0"

[[record]]
compound = "COc1ccc(C2NC(=O)C(C#N)c3c2sc2c(F)cccc32)c(OC)c1 (centres undefined)"
group = "label 0"

[[record]]
compound = "COc1cc(/C=C/C(=O)/C=C/c2cc(OC)c3c(c2OC)OCO3)c(OC)c2c1OCO2"
group = "label 0"

[[record]]
compound = "Cc1cccc2c(=O)c3c(sc12)c(NCc1ccccc1)nc1ccccc13"
group = "label 0"

[[record]]
compound = "COc1ccccc1/C=C1\\Oc2cc(OCCN3CCC(Cc4ccccc4)CC3)ccc2C1=O"
group = "label 0"

[[record]]
compound = "COc1ccc(C(=O)C[C@]2(O)C(=O)Nc3c(Cl)ccc(Cl)c32)cc1"
group = "label 0"

[[record]]
compound = "CCCCn1c(=O)c(-c2cc(-c3ccc(Cl)cc3)nc(-c3ccc(Cl)cc3)c2)cc2cc(C)ccc21"
group = "label 0"

[[record]]
compound = "O=[N+]([O-])c1ccc(Oc2nc(Nc3ccc(O[C@H]4CO[C@H]5[C@@H]4OC[C@@H]5O)c(Cl)c3)ncc2F)c(Cl)c1"
group = "label 0"

[[record]]
compound = "CCCCOc1ccc(/C=N/NC(N)=S)cc1"
group = "label 0"

[[record]]
compound = "CCCCCCCCCCCCCCCCCCOc1ccc(CC(=O)OCC[N+]2(C)CCCCC2)cc1"
group = "label 0"

[[record]]
compound = "c1ccc(Cc2nn3cc(-c4ccccc4)nc3s2)cc1"
group = "label 0"

[[record]]
compound = "CN1CCN(c2ccc(-c3cc4c(Nc5ccc(F)c(Cl)c5)ncnn4c3)cn2)CC1"
group = "label 0"

[[record]]
compound = "CC1=C([Se]CC(OC(=O)[C@@H](CSSC(C)(C)C)NC(=O)OC(C)(C)C)C(=O)NC(C)(C)C)C(=O)c2ccccc2C1=O (some centres undefined)"
group = "label 1"

[[record]]
compound = "CCOC(=O)Nc1ccc(-c2nc(-c3cccc(OCCN4CCOCC4)c3)c(-c3ccnc(Br)c3)[nH]2)cc1"
group = "label 0"

[[record]]
compound = "CNc1nc2c(s1)C(c1cccc(F)c1)CC(=O)N2 (centres undefined)"
group = "label 0"

[[record]]
compound = "CCCCNC(=O)Oc1ccc(/C(=C(\\C)c2ccc(Cl)cc2)c2ccc(OCCN3CCCCC3)cc2)cc1"
group = "label 0"

[[record]]
compound = "CCOC(=O)c1cn2ncnc(Oc3ccc(NC(=O)NCCN4CCN(C)CC4)c(Cl)c3)c2c1C"
group = "label 0"

[[record]]
compound = "Cc1ccc(/C=C(\\C#N)n2nc3cccc(F)c3n2)cc1"
group = "label 0"

[[record]]
compound = "O=[N+]([O-])c1ccc(Cl)c(-c2cc(CCCCO)on2)c1"
group = "label 0"

[[record]]
compound = "COc1ccc2nc(NC(=O)c3cccnc3Nc3ccc(S(N)(=O)=O)cc3)sc2c1"
group = "label 0"

[[record]]
compound = "COc1cc(-c2nc3sccn3c2-c2ccnc(NCCCNS(=O)(=O)c3ccc(F)cc3)n2)ccc1F"
group = "label 0"

[[record]]
compound = "c1ccc2cc(C[n+]3ccn(CCCCCCCCCCCCn4cc[n+](Cc5ccc6ccccc6c5)c4)c3)ccc2c1"
group = "label 1"

[[record]]
compound = "NC1=NC(c2cccc(Br)c2)c2sc3ccc(Cl)cc3c2N1 (centres undefined)"
group = "label 0"

[[record]]
compound = "O=C(/C=C/c1ccc([N+](=O)[O-])o1)NNC(=O)c1cc2ccccc2cc1O"
group = "label 1"

[[record]]
compound = "NCCCNc1nc2ccccc2c2c(=O)c3cccc(F)c3sc12"
group = "label 1"

[[record]]
compound = "COc1ccc(N2C(=O)C(Oc3ccccc3)C2c2ccc(C)cc2)cc1 (centres undefined)"
group = "label 0"

[[record]]
compound = "CC(=O)N1CCN(c2ccc(OCC3CO[C@](Cn4ccnc4)(c4ccc(Cl)cc4Cl)O3)cc2)CC1 (some centres undefined)"
group = "label 0"

[[record]]
compound = "N[C@@H](Cc1ccccc1)[C@@H](O)C(=O)NCc1ccc(F)cc1"
group = "label 0"

